Test system: SR leukemia
Test: NCI-60 one-dose screen, 48 h (100 = growth as untreated, 0 = no growth, -100 = all killed)
Conditions: 10 µM unless noted
This is part of a sample that, as a whole, favours compounds with a hit. Of some 83,000 tested, about 20% had one in any assay.
Listing of recorded growth by entry.
Unit % implied. Number only.

{"Compound": "COc1ccc(CNC(=O)c2c(C)n([O-])c3cc(F)c(F)cc3[n+]2=O)cc1", "growth, %": 37.5}
{"Compound": "O=C(O)c1ccc(CNS(=O)(=O)c2ccc3ccccc3c2)cc1", "growth, %": 33.4}
{"Compound": "C[N+]1(C)C2CC[C@@H]1CC(OC(=O)C(O)c1ccccc1)C2 (stereo partly specified)", "growth, %": 115}

Using known records, supply growth for CCCCOP(=O)(OCCCC)C(C(=O)OCC)C(CC(=O)OCC)C(=O)OCC (stereo unspecified)
128

Using known records, supply growth for Clc1ccc2c(c1)C(Br)c1cc(Cl)cc(Cl)c1-2 (stereo unspecified)
-4.33

Using known records, supply growth for "Cn1c(=O)c2[nH]c(=S)n(Cc3ccccc3)c2n(C)c1=O"
91.4

###

System: 786-0 renal
Experiment: NCI-60 one-dose screen, 48 h
Conditions: 10 µM unless noted
About 83,000 compounds went through this panel and 20% of them were active in at least one assay; those are over-represented in the sample as a whole. Calls of active or inactive are those of the source. The calls were made as follows: active = growth percent below 10; inactive = the rest.
# output must be one of YES = active, NO = inactive

Solved cases below.
{"Molecule": "O=C(c1ccc(N2CCOCC2)cc1[N+](=O)[O-])N1CCOCC1", "Label Value": "NO"}
{"Molecule": "Oc1c(Cl)cc(Cl)c(Cl)c1Cc1c(O)c(Cl)cc(Cl)c1Cl", "Label Value": "NO"}
{"Molecule": "OC(c1ccccc1)C(NCc1ccccc1)c1ccccc1 (centres undefined)", "Label Value": "NO"}
{"Molecule": "CCSc1nc(Nc2ccc(S(=O)(=O)Nc3ccon3)cc2)c(C#N)c(-c2cccc(Br)c2)n1", "Label Value": "NO"}
{"Molecule": "CC(C)=CCCC(C)c1ccc(C)c2c1OCN(CC1CCNCC1)C2 (centres undefined)", "Label Value": "YES"}
{"Molecule": "CCN(CC)c1ccc(C(=C2C=CC(=[N+](CC)Cc3cccc(S(=O)(=O)O)c3)C=C2)c2ccc(N(CC)Cc3cccc(S(=O)(=O)O)c3)cc2)cc1", "Label Value": "NO"}
{"Molecule": "Cc1cc(C(=O)Nc2ccc3cc(CN4CCOCC4)ccc3n2)c(C)n1-c1ccccc1", "Label Value": "NO"}
{"Molecule": "COC(=O)[C@H]1[C@H]2C[C@@H]3c4[nH]c5cc(OC)ccc5c4CCN3C[C@H]2C[C@@H](OC(=O)/C=C/c2cc(OC)c(OC)c(OC)c2)[C@@H]1OC", "Label Value": "NO"}
{"Molecule": "O=c1[nH]c(SCc2ccccc2)nc2nc(Nc3ccc(NC(=S)Nc4ccccc4)cc3)nc(-c3ccc(O)cc3O)c12", "Label Value": "NO"}
{"Molecule": "O=C(CN1CCN(c2ccc(Cl)cc2)CC1)N1CCN(c2nnc(-c3ccccc3)c(-c3ccccc3)n2)CC1", "Label Value": "NO"}

# lookup: test call for "COc1cccc(/C=N/Nc2nc3ccccc3s2)c1OC"
NO

# lookup: test call for "COc1ccc(/C=C2/SC(=Nc3c(C)nn(-c4ccccc4)c3N)NC2=O)cc1"
NO

# lookup: test call for "COC(=O)[C@H](Cc1cn(C)cn1)NC(=O)[C@H](C)NC(=O)Nc1cc(C(F)(F)F)cc(C(F)(F)F)c1"
YES

# lookup: test call for "COc1cccc(-c2nc3cc(NC(=O)c4ccc(Cl)c(C#N)c4)ccc3o2)c1"
YES

# lookup: test call for "COc1cc(/C=C/c2cc(/C=C/c3ccc(O)c(OC)c3)n(C(=O)Cc3ccccc3)n2)ccc1O"
NO

# lookup: test call for "O=c1sc2ncnc3ncn1c32"
NO

# lookup: test call for "C[C@]12CCC(=O)C=C1CC[C@H]1[C@@H]3C[C@@H](O)[C@](O)(C(=O)CO)[C@@]3(C)C[C@H](O)[C@@]12F"
NO

# lookup: test call for COc1cccc(C2=NN(C(C)=O)C(c3cc(OC)c(OC)c(OC)c3)C2)c1 (centres undefined)
NO

# lookup: test call for "N[C@H](CS)C(=O)O"
NO

###

System: COLO 205 colon
Assay: NCI-60 one-dose screen, 48 h (100 = growth as untreated, 0 = no growth, -100 = all killed)
Settings: 10 µM unless noted
Procedure: Cells are grown in 96 well plates and exposed to the test compound for 48 hours. Compounds are tested at a single concentration, which is 10^-5 M for most compounds. The reported endpoint is percent growth (GI% or GIPRCNT), where numbers from 0 - 100% represent growth inhibition, and numbers from -100% - 0 represent cell death. For example, a value of 40 represents 60% growth inhibition. A value of 0 means no net growth occurred over the course of the experiment. […]
About 83,000 compounds went through this panel and 20% of them were active in at least one assay; those are over-represented in the sample as a whole. Activity calls are given as the source filed them. Rule for the calls: active = growth percent below 10; inactive = the rest.
Quantity Name: growth

{"Chemical Smiles": "CCOc1cc(CCNS(=O)(=O)c2ccc(C)cc2)c(C(C)=O)cc1OCC", "Assay Target": "COLO 205 colon", "growth": "95.9% [100 µM] (inactive)"}

Using known records, supply growth for "O=C(COc1cccc(/C=C2\Cc3ccccc3C2=O)c1)c1ccc(Cl)cc1"
142% (inactive)

Using known records, supply growth for "C[C@]12CC[C@H](O)CC1=CC[C@@H]1[C@@H]2CC[C@]2(C)C(c3cccnc3)=CC[C@@H]12"
95.1% (inactive)

Using known records, supply growth for "COC(=O)[C@H](Cc1cn(C)cn1)NC(=O)[C@@H](NC(=O)Nc1cc(C(F)(F)F)cc(C(F)(F)F)c1)C(C)C"
-94.4% [100 µM] (active)

Using known records, supply growth for "O=C(N/N=C/c1cccc([N+](=O)[O-])c1)c1ccc(Br)o1"
97.9% (inactive)

Using known records, supply growth for "C=CCNC(=O)/C(=C/c1cccc([N+](=O)[O-])c1)NC(=O)c1ccccc1"
120% (inactive)

Using known records, supply growth for "O=C1/C(=C\c2coc3ccccc3c2=O)c2ccccc2N1c1c(Cl)cccc1Cl"
55.3% (inactive)

Using known records, supply growth for "COC(=O)N/N=C/c1coc2ccc(Cl)cc2c1=O"
91.4% (inactive)

Using known records, supply growth for "O=C(COc1cccc(/C=C2\Oc3ccc4ccccc4c3C2=O)c1)c1ccc(Cl)cc1"
102% (inactive)

###

System: ACHN renal
Assay: NCI-60 one-dose screen, 48 h
Settings: 10 µM unless noted
This is part of a sample that, as a whole, favours compounds with a hit. Of some 83,000 tested, about 20% had one in any assay. Activity calls are given as the source filed them. Rule for the calls: active = growth percent below 10; inactive = the rest.
# output must be one of 1 (yes) for active, 0 (no) for inactive

Solved cases below.
{"Compound": "O=c1sc2ncnc3ncn1c32", "Label Value": "0 (no)"}
{"Compound": "O=c1c2c(=NCCCN3CCCC3)cc3c(=O)n(CCCN4CCCC4)c(=O)c4c(NCCCN5CCCC5)cc(c(O)n1CCCN1CCCC1)c2c4-3", "Label Value": "1 (yes)"}
{"Compound": "COc1ccccc1NC(=O)c1sc2nc3c(cc2c1N)C(=O)CCC3", "Label Value": "0 (no)"}
{"Compound": "C[C@H]1O[C@@H](O[C@H]2[C@@H](O)C[C@H](O[C@H]3[C@@H](O)C[C@H](O[C@H]4CC[C@]5(C)C6C[C@@H](O)[C@]7(C)[C@@H](C8=CC(=O)OC8)CC[C@]7(O)C6CC[C@@H]5C4)O[C@@H]3C)O[C@@H]2C)C[C@H](O)[C@@H]1O (stereo not given in full)", "Label Value": "1 (yes)"}
{"Compound": "Cc1ccc2c(c1)C(=O)/C(=C\\Nc1ccc(C(N)=O)cc1)C(O)O2 (stereo not given)", "Label Value": "0 (no)"}

# lookup: test call for COc1cc(C2CC(c3ccc(C)cc3)=NN2C=O)ccc1OCCN(C)C (stereo not given)
0 (no)

# lookup: test call for "CC(C)Cn1cnc2c(NCn3nc(-c4cc(Cl)cc(Cl)c4Cl)n(/N=C/c4ccc(Cl)cc4)c3=S)nc3ccccc3c21"
0 (no)

# lookup: test call for CC(=O)OC1Oc2cc(C)c(C)cc2-c2oc(=O)c(-c3ccccc3)cc21 (stereo not given)
0 (no)

###

Tested on: HOP-62 NSCLC
Assay: NCI-60 one-dose screen, 48 h (100 = growth as untreated, 0 = no growth, -100 = all killed)
Conditions: 10 µM unless noted
Compounds without any hit were thinned out: in the full panel of roughly 83,000, 20% have a hit. Calls of active or inactive are those of the source. The calls were made as follows: active = growth percent below 10; inactive = the rest.
Quantity Name: growth

Guide cases for growth, answers given:
{"Molecule": "Cc1[nH]c(=O)[nH]c(=O)c1CCSSCCc1c(C)[nH]c(=O)[nH]c1=O", "Assay Target": "HOP-62 NSCLC", "Result": "97.2% (inactive)"}
{"Molecule": "NC(=O)c1cc(Cl)ccc1NC(=O)c1ccccc1-c1ccccc1", "Assay Target": "HOP-62 NSCLC", "Result": "39% (inactive)"}
{"Molecule": "CCOC(=O)N1CCC(N=C2CSc3nnc(-c4cc(C(F)(F)F)cc(C(F)(F)F)c4)n3N2)CC1", "Assay Target": "HOP-62 NSCLC", "Result": "-4.27% (active)"}

Using known records, supply growth for "COc1cccc(/C=C2\Cc3ccccc3C2=O)c1"
96.4% (inactive)

Using known records, supply growth for "CC(=O)O[C@H]1CC[C@@]2(C)C(=CC[C@@H]3[C@@H]2CC[C@]2(C)C(c4cccnc4)=CC[C@@H]32)C1"
75.7% (inactive)

Using known records, supply growth for "COc1ccc2cc(-c3nc4ccccc4[nH]3)c(=O)oc2c1"
93.9% (inactive)

Using known records, supply growth for "CCCCN1c2nc3ccccc3cc2Sc2cc3ccccc3nc21"
90.7% (inactive)

Using known records, supply growth for "c1ccc(-c2oc(-c3ccccc3)c3ccccc23)cc1"
98.2% (inactive)
